# target.desc: Sodium-dependent serotonin transporter (Rattus norvegicus, UniProt P31652)
# Sequence (P31652 whole entry): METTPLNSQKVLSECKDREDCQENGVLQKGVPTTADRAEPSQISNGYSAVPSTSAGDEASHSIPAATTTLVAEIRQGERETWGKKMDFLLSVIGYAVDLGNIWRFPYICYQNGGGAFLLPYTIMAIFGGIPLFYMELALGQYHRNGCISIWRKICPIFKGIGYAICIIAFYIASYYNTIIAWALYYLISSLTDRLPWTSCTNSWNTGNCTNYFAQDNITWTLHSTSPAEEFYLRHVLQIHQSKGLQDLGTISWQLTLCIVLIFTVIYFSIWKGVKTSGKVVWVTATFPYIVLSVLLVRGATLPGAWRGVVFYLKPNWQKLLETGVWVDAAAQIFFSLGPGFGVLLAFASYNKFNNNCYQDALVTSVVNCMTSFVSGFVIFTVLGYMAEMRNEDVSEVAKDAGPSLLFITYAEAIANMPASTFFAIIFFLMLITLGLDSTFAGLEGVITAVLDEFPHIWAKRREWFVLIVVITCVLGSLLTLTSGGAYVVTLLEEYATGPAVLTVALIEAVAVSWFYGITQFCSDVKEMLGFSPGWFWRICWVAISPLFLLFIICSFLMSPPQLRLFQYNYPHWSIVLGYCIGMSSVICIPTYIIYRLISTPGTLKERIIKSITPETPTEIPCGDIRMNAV
# test.description: Binding affinity for serotonin transporter was determined in rat cortical membrane.
# Type: cell membranes
reported.metric: Ki (nM)
Report the figure in nM without appending any unit label.

Some solved cases for reference:
compound: O[C@H]1CCN(Cc2cccc(I)c2)C[C@@H]1N1C2CCC1CC(c1ccccc1)C2 (stereo not given in full)
quantity.unit: nM
Ki: 4430
//
compound: OC(CN1C2CCC1CC(c1ccccc1)C2)c1ccc(Br)cc1 (stereo not given)
quantity.unit: nM
Ki: 30.1
//
compound: O=C(CCCN1C2CCC1CC(c1ccccc1)C2)c1ccc(F)cc1 (stereo not given)
quantity.unit: nM
Ki: 88.6
//
compound: OC(CN1C2CCC1CC(c1ccccc1)C2)c1cccc(Br)c1 (stereo not given)
quantity.unit: nM
Ki: 27

API: value(readout= Ki, system= Sodium-dependent serotonin transporter (Rattus norvegicus, UniProt P31652), query= O[C@H]1CCN(Cc2ccc(F)cc2)C[C@@H]1N1C2CCC1CC(c1ccccc1)C2 (stereo not given in full) )
9200

Source of measurements: ChEMBL document CHEMBL1130429
